B1: library; a variant is named by its letters at N, in order (parent)
chain: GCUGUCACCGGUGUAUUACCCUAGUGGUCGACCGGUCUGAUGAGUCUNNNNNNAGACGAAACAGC

variants of: B1; assay: normalized RNA/DNA level without ligand (relative to sTRSVctl = 100) (log10 (% of sTRSVctl)); ligand: hypoxanthine (xanthine aptamer); higher = less ribozyme self-cleavage, higher mRNA level; details: HEK293T, reporter: mCherry (pCS4076), ligand present: no
Reported normalized RNA/DNA level without ligand (log10) is given for each of the following variants.
Write no unit; give the number alone.

Sample answers from the record:
GGCAUU | 1.93
ACCAGA | 1.77
UCUCUU | 1.81
GCAUCG | 1.51
CUUCAU | 1.88
AAUUUC | 1.93
CCAAAG | 1.58
AUGAGA | 1.45

Task item: Which measured normalized RNA/DNA level without ligand (log10) value corresponds to CGGCUG ?
Reply: 1.89

Task item: Name the recorded normalized RNA/DNA level without ligand (log10) for UCUGAG .
Reply: 1.58

Task item: Which value of normalized RNA/DNA level without ligand (log10) has been reported for CCUCAU in the records?
Reply: 1.87

Task item: If you can, please state the reported normalized RNA/DNA level without ligand (log10) value of AGGUAA .
Reply: 1.6

Task item: // returns reported normalized RNA/DNA level without ligand (log10) for input GGACCU
Reply: 1.98

Task item: For the variant CAUAUC , what normalized RNA/DNA level without ligand (log10) is on record?
Reply: 1.9

Task item: Please give the measured normalized RNA/DNA level without ligand (log10) for this variant: AAAGGA
Reply: 1.58

Task item: Look at this variant and give its reported normalized RNA/DNA level without ligand (log10). AAAUCG
Reply: 1.36

Task item: Data request, read-out normalized RNA/DNA level without ligand (log10), for CGUGAG
Reply: 1.75

Task item: Sample AUUUUU — what was its normalized RNA/DNA level without ligand (log10)?
Reply: 1.88

Task item: Request the reported normalized RNA/DNA level without ligand (log10) associated with UAGUUG
Reply: 1.71
